TESTED SYSTEM: T1, FLAG-tagged human APRIL (human, UniProt O75888 105-250, limits assumed)
T1 construct: also called FLAG-tagged APRIL; FLAG-APRIL; not shown: FLAG tag
T1 sequence (looked up): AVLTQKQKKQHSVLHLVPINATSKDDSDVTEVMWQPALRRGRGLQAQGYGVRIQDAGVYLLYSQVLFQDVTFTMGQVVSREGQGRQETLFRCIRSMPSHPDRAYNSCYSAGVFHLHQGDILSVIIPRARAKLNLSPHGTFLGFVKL
ASSAY DETAILS: FLAG-APRIL ELISA after 10 min at 65 °C, antibody at 0.316 µg/ml
// reported % residual binding after heat treatment (room temperature = 100%) for each item listed
Response body: numeric value in %, unit text excluded.

Here is how some binders turned out for % residual binding after heat treatment (room temperature = 100%).
binder="VH12.VL15 (antibody, human IgG4 S228P, kappa, V domains shown, Humanized IgG4 (S241P, Kabat) with human kappa, from HEK293T; also called 12.15) VH: QVQLVQSGAEVKKPGASVKVSCKASGYTFTSYVMHWVRQAPGQGLEWMGYINPYNDAPKYNEKFKGRVTMTRDTSISTAYMELSRLRSDDTAVYYCARGLGYALYYAMDYWGQGTTVTVSS VL: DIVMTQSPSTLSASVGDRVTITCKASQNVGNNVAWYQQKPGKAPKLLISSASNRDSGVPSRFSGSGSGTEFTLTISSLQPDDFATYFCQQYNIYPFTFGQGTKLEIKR" readout_unit=% measurement=74.3
binder="hAPRIL.01A (antibody, mouse IgG1, kappa, V domains shown, Mouse antibody; also called mouse hAPRIL.01A antibody) VH: EVQLQQSGPELVKPGASVKMSCKASGYTFTSYVMHWVKQKPGQGLEWIGYINPYNDAPKYNEKFKGKATVTSDKSSGTAYMELSSLTSEDSAVYYCARGLGYALYYAMDYWGQGTSVTVSS VL: DIVMTQSQKFKSTSVGDRVSVTCKASQNVGNNVAWYQQKAGQSPKALISSASNRDSGVPDRFTGSGSGTDFTLTISNVQSEDLADYFCQQYNIYPFTFGSGTKLEIKR" readout_unit=% measurement=13.7

Request: Which % residual binding after heat treatment (room temperature = 100%) value belongs to VH14.VL15 (antibody, human IgG4 S228P, kappa, V domains shown, Humanized IgG4 (S241P, Kabat) with human kappa, from HEK293T) VH: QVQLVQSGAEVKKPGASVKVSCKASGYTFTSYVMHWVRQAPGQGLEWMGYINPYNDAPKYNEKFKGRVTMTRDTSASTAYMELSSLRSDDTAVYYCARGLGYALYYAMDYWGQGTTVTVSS VL: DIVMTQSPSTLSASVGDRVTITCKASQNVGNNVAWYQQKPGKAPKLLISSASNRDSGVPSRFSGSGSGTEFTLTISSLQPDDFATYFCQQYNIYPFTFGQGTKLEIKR ?
Response: 63.7

Request: Would you kindly repeat that for VH11.VL15 (antibody, human IgG4 S228P, kappa, V domains shown, Humanized IgG4 (S241P, Kabat) with human kappa, from HEK293T; also called 11.15) VH: QVQLVQSGAEVKKPGASVKVSCKASGYTFTSYVMHWVRQAPGQRLEWMGYINPYNDAPKYNEKFKGRVTITRDTSASTAYMELSSLRSEDTAVYYCARGLGYALYYAMDYWGQGTTVTVSS VL: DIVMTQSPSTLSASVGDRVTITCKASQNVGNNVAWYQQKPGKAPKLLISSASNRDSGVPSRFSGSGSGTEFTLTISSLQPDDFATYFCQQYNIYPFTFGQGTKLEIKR ?
Response: 74.6

Request: Would you kindly repeat that for VH13.VL15 (antibody, human IgG4 S228P, kappa, V domains shown, Humanized IgG4 (S241P, Kabat) with human kappa, from HEK293T; also called 13.15) VH: QVQLVQSGAEVKKPGASVKVSCKASGYTFTSYVMHWVRQAPGQGLEWMGYINPYNDAPKYNEKFKGRVTMTRDTSTSTVYMELSSLRSEDTAVYYCARGLGYALYYAMDYWGQGTMVTVSS VL: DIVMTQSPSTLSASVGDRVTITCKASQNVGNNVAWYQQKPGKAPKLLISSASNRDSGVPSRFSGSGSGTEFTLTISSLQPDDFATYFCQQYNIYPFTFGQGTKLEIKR ?
Response: 66.1

Data origin, for the record: patent US20160264674A1
